# credit: patent US20260183320A1

- System: HT29 cell line
- Experimental Protocol: HT29 cell line proliferation inhibition assay under normoxia and hypoxia (CTG)
- Assay type: cell-based
- Stated Conditions: Homo sapiens, HT-29, HT29; monotherapy; hypoxia; adavosertib series (Table 16)
- Description: 24-well plates with glass inserts were used in assays under hypoxia, and ordinary plastic 24-well plates were used in assays under normoxia. • 2) The cells were incubated overnight at 37° C. in an incubator with 5% CO2. • 3) Treatment with Compounds A hypoxia workstation was tuned to create a hypoxic environment, and an oxygen indicator was used to confirm the hypoxia in the workstation. […]
Measurement Label: pIC50
Please note pIC50 is a logarithmic value: minus log10 of concentration in mol/L. Answer with that number alone.

# input Which value of pIC50 has been reported for Cn1c(COP(=O)(NCCBr)NCCBr)cnc1[N+](=O)[O-] [TH-302] in the records?
# output 4.63

* * *

- Test system: wild-type p53-expressing (H460) cell line
- Experimental Protocol: CTG cell proliferation assay, H460 cell line
- Type: cell-based
- Stated Conditions: Homo sapiens, NCI-H460, H460; with 400 nM palbociclib (2 h pretreatment), 72 h
Measurement Label: IC50
Answer format reminder: number followed by unit.

# input Any idea what its IC50 is? The compound is O=[N+]([O-])c1ccc(C(OP(=O)(N2CC2)N2CC2)C(F)(F)F)cc1Oc1ccc(-c2ccc(F)cc2)c(F)c1 (stereo not shown)
# output 10.4 nM

* * *

- Tested on: p53-deficient (HT29) cell line
- Experimental Protocol: CTG cell proliferation assay, HT29 cell line
- Format: cell-based
- Stated Conditions: Homo sapiens, HT-29, HT29; with 160 nM adavosertib (2 h pretreatment), 72 h
Measurement Label: pIC50
Scale note: pIC50 = -log10(concentration in M).

# input Which value of pIC50 has been reported for O=[N+]([O-])c1ccc(C(OP(=O)(N2CC2)N2CC2)C(F)(F)F)cc1Oc1ccc(-c2ccc(F)cc2)c(F)c1 (stereo not shown) in the records?
# output 7.92

* * *

- Tested on: wild-type p53-expressing (H460) cell line
- Experimental Protocol: CTG cell proliferation assay, H460 cell line
- Format: cell-based
- Stated Conditions: Homo sapiens, NCI-H460, H460; monotherapy; first assay; read-out: IC50
- Method: Each CTG cell proliferation assay included the steps as follows: • 1) An H460 or HT29 cell suspension was added to a 96-well plate at 100 μL per well so that each well contained 2000 or 10000 cells. • 2) The cells were incubated overnight at 37° C. in an incubator with 5% CO2. • 3) Treatment with Compounds […]
Measurement Label: pIC50
FYI, pIC50 means -log10 of a concentration in mol per litre.

# input What value of pIC50 on wild-type p53-expressing (H460) cell line does C[C@H](OP(=O)(N1CC1)N1CC1)c1ccc([N+](=O)[O-])c(Oc2cccc(C(=O)N(C)C)c2)c1 have?
# output 9.40

* * *

- Tested on: p53-deficient (HT29) cell line
- Experimental Protocol: CTG cell proliferation assay, HT29 cell line
- Assay type: cell-based
- Stated Conditions: Homo sapiens, HT-29, 72 h, HT29; 0.44 μM ceralasertib + AST-3424 72 h, simultaneously; read-out: IC50
Measurement Label: IC50 (nM)
# value in nM; strip the unit string

# input Please tell me: IC50 of C[C@H](OP(=O)(N1CC1)N1CC1)c1ccc([N+](=O)[O-])c(Oc2cccc(C(=O)N(C)C)c2)c1 , system p53-deficient (HT29) cell line?
# output 1.72

* * *

- System: p53-deficient (HT29) cell line
- Experimental Protocol: CTG cell proliferation assay, HT29 cell line
- Format: cell-based
- Stated Conditions: Homo sapiens, HT-29, HT29; with 1.3 μM ceralasertib; first assay; read-out: IC50
Measurement Label: pIC50
Friendly reminder that pIC50 comes from taking -log10 of the concentration in mol/L.

# input Tell me the measured pIC50 of C[C@H](OP(=O)(N1CC1)N1CC1)c1ccc([N+](=O)[O-])c(Oc2cccc(C(=O)N(C)C)c2)c1 , please.
# output 8.85

* * *

- Test system: wild-type p53-expressing (H460) cell line
- Experimental Protocol: CTG cell proliferation assay, H460 cell line
- Type: cell-based
- Stated Conditions: Homo sapiens, NCI-H460, 72 h, H460; monotherapy, 72 h
Measurement Label: pIC50
pIC50 (log units): -log10 of the concentration in mol/L.

# input // returns reported pIC50 for input O=[N+]([O-])c1ccc(C(OP(=O)(N2CC2)N2CC2)C(F)(F)F)cc1Oc1ccc(-c2ccc(F)cc2)c(F)c1 (stereo not shown) [AST]
# output 8.39

* * *

- Tested on: p53-deficient (HT29) cell line
- Experimental Protocol: CTG cell proliferation assay, HT29 cell line
- Type: cell-based
- Stated Conditions: Homo sapiens, HT-29, HT29; with 100 nM adavosertib (2 h pretreatment), 72 h; read-out: IC50
Measurement Label: pIC50
Expect pIC50 as a plain number equal to -log10 of the molar concentration.

# input Fill blank: measured pIC50 of the molecule C[C@H](OP(=O)(N1CC1)N1CC1)c1ccc([N+](=O)[O-])c(Oc2cccc(C(=O)N(C)C)c2)c1 [AST-3424] is ____.
# output 8.68

* * *

- Tested on: p53-deficient (HT29) cell line
- Experimental Protocol: CTG cell proliferation assay, HT29 cell line
- Assay type: cell-based
- Stated Conditions: Homo sapiens, HT-29, HT29; with 50 nM palbociclib (2 h pretreatment), 72 h; read-out: IC50
Measurement Label: IC50 (nM)
Give the value in nM but do not write nM after it.

# input Form field: reported IC50 of C[C@H](OP(=O)(N1CC1)N1CC1)c1ccc([N+](=O)[O-])c(Oc2cccc(C(=O)N(C)C)c2)c1
# output 62.5

* * *

- Test system: p53-deficient (HT29) cell line
- Experimental Protocol: CTG cell proliferation assay, HT29 cell line
- Format: cell-based
- Stated Conditions: Homo sapiens, HT-29, HT29; with 1.3 μM ceralasertib; second assay; read-out: IC50
Measurement Label: IC50 (nM)
# output: bare number, implied unit nM

# input Look up IC50 for this molecule: C[C@H](OP(=O)(N1CC1)N1CC1)c1ccc([N+](=O)[O-])c(Oc2cccc(C(=O)N(C)C)c2)c1
# output 1.21

* * *

- Tested on: wild-type p53-expressing (H460) cell line
- Experimental Protocol: CTG cell proliferation assay, H460 cell line
- Assay type: cell-based
- Stated Conditions: Homo sapiens, NCI-H460, H460; with 160 nM adavosertib (2 h pretreatment), 72 h; read-out: IC50
Measurement Label: IC50
Give the number first and the unit second.

# input // lookup IC50 for C[C@H](OP(=O)(N1CC1)N1CC1)c1ccc([N+](=O)[O-])c(Oc2cccc(C(=O)N(C)C)c2)c1
# output 0.19 nM

* * *

- Tested on: p53-deficient (HT29) cell line
- Experimental Protocol: CTG cell proliferation assay, HT29 cell line
- Assay type: cell-based
- Stated Conditions: Homo sapiens, HT-29, 72 h, HT29; monotherapy, 72 h
Measurement Label: pIC50
pIC50 (log units): -log10 of the concentration in mol/L.

# input Which pIC50 is reported for this compound? O=[N+]([O-])c1ccc(C(OP(=O)(N2CC2)N2CC2)C(F)(F)F)cc1Oc1ccc(-c2ccc(F)cc2)c(F)c1 (stereo not shown)
# output 5.86

* * *

- System: p53-deficient (HT29) cell line
- Experimental Protocol: CTG cell proliferation assay, HT29 cell line
- Format: cell-based
- Stated Conditions: Homo sapiens, HT-29, HT29; with 130 nM adavosertib (2 h pretreatment), 72 h; read-out: IC50
- Method: Each CTG cell proliferation assay included the steps as follows: • 1) An H460 or HT29 cell suspension was added to a 96-well plate at 100 μL per well so that each well contained 2000 or 10000 cells. • 2) The cells were incubated overnight at 37° C. in an incubator with 5% CO2. • 3) Treatment with Compounds […]
Measurement Label: IC50

# input Any idea what IC50 was measured for C[C@H](OP(=O)(N1CC1)N1CC1)c1ccc([N+](=O)[O-])c(Oc2cccc(C(=O)N(C)C)c2)c1 [AST-3424] ?
# output 1.52 nM

* * *

- System: wild-type p53-expressing (H460) cell line
- Experimental Protocol: CTG cell proliferation assay, H460 cell line
- Type: cell-based
- Stated Conditions: Homo sapiens, NCI-H460, H460; with 0.05 nM palbociclib (2 h pretreatment), 72 h
- Procedure: Each CTG cell proliferation assay included the steps as follows: • 1) An H460 or HT29 cell suspension was added to a 96-well plate at 100 μL per well so that each well contained 2000 or 10000 cells. • 2) The cells were incubated overnight at 37° C. in an incubator with 5% CO2. • 3) Treatment with Compounds […]
Measurement Label: pIC50
Interpret pIC50 as the negative base-10 log of the concentration measured in mol/L.

# input // map O=[N+]([O-])c1ccc(C(OP(=O)(N2CC2)N2CC2)C(F)(F)F)cc1Oc1ccc(-c2ccc(F)cc2)c(F)c1 (stereo not shown) to recorded pIC50 (system: wild-type p53-expressing (H460) cell line)
# output 8.36
